Data origin: patent US7166472B2

MEASUREMENT NOTES: Superoxide assay (dihydroethidium fluorometric)
Type: biochemical
ASSAY CONDITIONS: test compound 10 μM, ambient oxygen, dark, 60 minutes
MEASUREMENT KIND: superoxide production

Nc1ccccc1C(=O)C[C@H](N)C(=O)O [KYN, L-kynurenine]    negligible
Nc1c(O)cccc1C(=O)CC(N)C(=O)O (stereo not shown) [3-HK, 3-hydroxykynurenine]    negligible
Nc1ccccc1C(=O)O [ANA, anthranilic acid]    negligible

---

MEASUREMENT NOTES: Cyclic voltammetry of kynurenine metabolites with Cu(II)
Format: physicochemical
ASSAY CONDITIONS: metabolite 100 μM, cupric chloride 25 μM, PBS pH 7.4
MEASUREMENT KIND: Cu(II) reduction wave in presence of metabolite

Nc1ccccc1C(=O)O    largely unaffected
Nc1ccccc1C(=O)C[C@H](N)C(=O)O    largely unaffected
